System: Jurkat
protocol.notes: cell count relative to DMSO control (fraction of control); higher = more cells (less growth inhibition)
condition.notes: 48 h
Can you tell me cell count for the items I'm about to list?
Give bare numbers.

>>> experimental_result("C[C@H](CCC(=O)O)[C@H]1CC[C@H]2[C@@H]3[C@H](O)C[C@@H]4C[C@H](O)CC[C@]4(C)[C@H]3CC[C@]12C [Chenodiol (Chenodeoxycholic Acid)] (concentration: 25 µM)")
0.838
>>> experimental_result("CCCCCOc1ccc(-c2cc(-c3ccc(C(=O)N[C@H]4C[C@@H](O)[C@@H](O)NC(=O)[C@@H]5[C@@H](O)[C@@H](C)CN5C(=O)[C@H]([C@H](O)CC(N)=O)NC(=O)[C@H]([C@H](O)[C@@H](O)c5ccc(O)c(OS(=O)(=O)O)c5)NC(=O)[C@@H]5C[C@@H](O)CN5C(=O)[C@H]([C@@H](C)O)NC4=O)cc3)no2)cc1 [Micafungin] (concentration: 25 µM)")
0.52

Lab note: next molecule to report on.
Incoming: Look at this molecule and give its reported cell count. CCCCCCCCCC(=O)N[C@@H](Cc1c[nH]c2ccccc12)C(=O)N[C@H](CC(N)=O)C(=O)N[C@@H](CC(=O)O)C(=O)N[C@@H]1C(=O)NCC(=O)N[C@@H](CCCN)C(=O)N[C@@H](CC(=O)O)C(=O)N[C@H](C)C(=O)N[C@@H](CC(=O)O)C(=O)NCC(=O)N[C@H](CO)C(=O)N[C@@H]([C@H](C)CC(=O)O)C(=O)N[C@@H](CC(=O)c2ccccc2N)C(=O)O[C@@H]1C [Daptomycin] (concentration: 25 µM)
Outgoing: 0.917

Data origin: the supplement of paper PMC4709259
